Test system: 855422-203-R-J1-PDC complex spheroid viability;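 also: spheroids exposed to compounds for seven days before readout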
Assay: Anticancer human tumor 855422-203-R-J1-PDC patient-derived bladder carcinoma cell line growth inhibition [POLQ]
Details: second compound 0.1 µM; first compound 3.16 µM; stronger effect = lower value
For each record, write down the corresponding viability, T/C.
Numbers only, in %.

Compound: COc1cc(C2c3cc4c(cc3C(OC3OC5COC(C)OC5C(O)C3O)C3COC(=O)C23)OCO4)cc(OC)c1O (stereo unspecified) + COC1C(OC(N)=O)C(O)C(Oc2ccc3c(O)c(NC(=O)c4ccc(O)c(CC=C(C)C)c4)c(=O)oc3c2C)OC1(C)C
Assay system: 855422-203-R-J1-PDC complex spheroid viability;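 also: spheroids exposed to compounds for seven days before readout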
Readout unit: %
Test result: 7.81
--
Compound: COc1ccc([C@@H](O)c2cc(-c3ncnc4cc(N5CCOCC5)ccc34)c(F)cc2Cl)nn1 + COC1C(OC(N)=O)C(O)C(Oc2ccc3c(O)c(NC(=O)c4ccc(O)c(CC=C(C)C)c4)c(=O)oc3c2C)OC1(C)C
Assay system: 855422-203-R-J1-PDC complex spheroid viability;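 also: spheroids exposed to compounds for seven days before readout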
Readout unit: %
Test result: 68.6
--
Compound: O=C(c1cc(Cc2n[nH]c(=O)c3ccccc23)ccc1F)N1CCN(C(=O)C2CC2)CC1 + Nc1ccc(C#CCN(C(=O)Cc2ncc(C(F)(F)F)cc2C(F)(F)F)c2ccc(F)cc2)nn1
Assay system: 855422-203-R-J1-PDC complex spheroid viability;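 also: spheroids exposed to compounds for seven days before readout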
Readout unit: %
Test result: 125
--
Compound: CC1COCCN1c1cc(-c2ccnn2C)c2ccnc(-c3ccn[nH]3)c2n1 (stereo unspecified) + COC1C(OC(N)=O)C(O)C(Oc2ccc3c(O)c(NC(=O)c4ccc(O)c(CC=C(C)C)c4)c(=O)oc3c2C)OC1(C)C
Assay system: 855422-203-R-J1-PDC complex spheroid viability;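 also: spheroids exposed to compounds for seven days before readout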
Readout unit: %
Test result: 9.78
--
Compound: O=c1[nH]cc(F)c(=O)[nH]1 + Cc1cccc(N(C)C(=O)C2C(O)CCN2c2nc(C)cc(C(F)(F)F)c2C#N)c1
Assay system: 855422-203-R-J1-PDC complex spheroid viability;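 also: spheroids exposed to compounds for seven days before readout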
Readout unit: %
Test result: 26.3

Quick batch: viability, T/C for everything below.
1. CC1COCCN1c1cc(C2(O)CC3CCC(C2)O3)c2cnn(-c3ccn[nH]3)c2n1 (stereo unspecified) + COC1C(OC(N)=O)C(O)C(Oc2ccc3c(O)c(NC(=O)c4ccc(O)c(CC=C(C)C)c4)c(=O)oc3c2C)OC1(C)C
2. CNCc1ccc(-c2[nH]c3cc(F)cc4c3c2CCNC4=O)cc1 + Cc1cccc(N(C)C(=O)C2C(O)CCN2c2nc(C)cc(C(F)(F)F)c2C#N)c1
3. CCc1cc2c(N3CCc4c(cc(Cn5ccnc5)cc4-c4cn(C)nc4C(F)(F)F)C3=O)ccnc2c(OC)n1 + COC1C(OC(N)=O)C(O)C(Oc2ccc3c(O)c(NC(=O)c4ccc(O)c(CC=C(C)C)c4)c(=O)oc3c2C)OC1(C)C
4. COc1cccc2c1C(=O)c1c(O)c3c(c(O)c1C2=O)CC(O)(C(=O)CO)CC3OC1CC(N)C(O)C(C)O1 (stereo unspecified) + Cc1cccc(N(C)C(=O)C2C(O)CCN2c2nc(C)cc(C(F)(F)F)c2C#N)c1
5. CCc1cc2c(N3CCc4c(cc(Cn5ccnc5)cc4-c4cn(C)nc4C(F)(F)F)C3=O)cc(C)nc2c(OC)n1 + Cc1cccc(N(C)C(=O)C2C(O)CCN2c2nc(C)cc(C(F)(F)F)c2C#N)c1
6. CCc1cc2c(N3CCc4c(cc(Cn5ccnc5)cc4-c4cn(C)nc4C(F)(F)F)C3=O)ccnc2c(OC)n1 + Nc1ccc(C#CCN(C(=O)Cc2ncc(C(F)(F)F)cc2C(F)(F)F)c2ccc(F)cc2)nn1
7. O=c1[nH]cc(F)c(=O)[nH]1 + Nc1ccc(C#CCN(C(=O)Cc2ncc(C(F)(F)F)cc2C(F)(F)F)c2ccc(F)cc2)nn1
8. O=C(c1cc(Cc2n[nH]c(=O)c3ccccc23)ccc1F)N1CCN(C(=O)C2CC2)CC1 + Cc1cccc(N(C)C(=O)C2C(O)CCN2c2nc(C)cc(C(F)(F)F)c2C#N)c1

1. 6.55
2. 111
3. 52.6
4. 0.48
5. 66.8
6. 76.3
7. 46.6
8. 101

Please report viability, T/C for every entry that follows.
1. COc1cc(C2c3cc4c(cc3C(OC3OC5COC(C)OC5C(O)C3O)C3COC(=O)C23)OCO4)cc(OC)c1O (stereo unspecified) + Nc1ccc(C#CCN(C(=O)Cc2ncc(C(F)(F)F)cc2C(F)(F)F)c2ccc(F)cc2)nn1
2. CNCc1ccc(-c2[nH]c3cc(F)cc4c3c2CCNC4=O)cc1 + COC1C(OC(N)=O)C(O)C(Oc2ccc3c(O)c(NC(=O)c4ccc(O)c(CC=C(C)C)c4)c(=O)oc3c2C)OC1(C)C
3. CC1COCCN1c1cc(-c2ccnn2C)c2ccnc(-c3ccn[nH]3)c2n1 (stereo unspecified) + Nc1ccc(C#CCN(C(=O)Cc2ncc(C(F)(F)F)cc2C(F)(F)F)c2ccc(F)cc2)nn1
4. COc1cccc2c1C(=O)c1c(O)c3c(c(O)c1C2=O)CC(O)(C(=O)CO)CC3OC1CC(N)C(O)C(C)O1 (stereo unspecified) + COC1C(OC(N)=O)C(O)C(Oc2ccc3c(O)c(NC(=O)c4ccc(O)c(CC=C(C)C)c4)c(=O)oc3c2C)OC1(C)C
5. COc1cc2cc(C(=O)CCC(=O)O)sc2cc1OC + Cc1cccc(N(C)C(=O)C2C(O)CCN2c2nc(C)cc(C(F)(F)F)c2C#N)c1
6. O=C(Nc1ccc(O)c(NS(=O)(=O)c2ccc(F)cc2)c1)c1ccc(-c2ccccc2)cc1 + Cc1cccc(N(C)C(=O)C2C(O)CCN2c2nc(C)cc(C(F)(F)F)c2C#N)c1

1. 8.67
2. 100
3. 11.8
4. 0.32
5. 122
6. 109

Provide the reported viability, T/C of each entry below, same order.
1. CCc1cc2c(N3CCc4c(cc(Cn5ccnc5)cc4-c4cn(C)nc4C(F)(F)F)C3=O)cc(C)nc2c(OC)n1 + COC1C(OC(N)=O)C(O)C(Oc2ccc3c(O)c(NC(=O)c4ccc(O)c(CC=C(C)C)c4)c(=O)oc3c2C)OC1(C)C
2. COc1cc2cc(C(=O)CCC(=O)O)sc2cc1OC + Nc1ccc(C#CCN(C(=O)Cc2ncc(C(F)(F)F)cc2C(F)(F)F)c2ccc(F)cc2)nn1

1: 43.9; 2: 138
